- System: Mus musculus
- experimental.protocol: Anticonvulsant activity against DBA/2 mouse at 30 mg/kg, po 2 hrs post dose
- Type: functional
Reported Activity values for the following compounds.
endpoint.label: Activity (%)

INSERT INTO results (compound, assay_result) VALUES
  ('CC(C)C[C@H](CN)CC(=O)O [PREGABALIN]', 100),
  ('NCC(CC(=O)O)CC1CCOC1 (centres undefined)', 0),
  ('NCC(CC(=O)O)Cc1cccs1 (centres undefined)', 40),
  ('NCC(CC(=O)O)Cc1ccccc1 (centres undefined)', 0),
  ('NC[C@@H](CC(=O)O)Cc1ccco1', 0),
  ('NCC(CC(=O)O)Cc1ccco1 (centres undefined)', 20),
  ('NC[C@H](CC(=O)O)Cc1ccco1', 40),
  ('NCC(CC(=O)O)Cc1ccsc1 (centres undefined)', 60),
  ('NCC(CC(=O)O)Cc1ccoc1 (centres undefined)', 0);

These measurements were taken from ChEMBL document CHEMBL1146978.
